# study.target: EZH2 Y641F mutant (PRC2 enzyme) (Homo sapiens (Human), UniProt Q15910, Y641F)
# Sequence (Q15910 whole entry Y641F): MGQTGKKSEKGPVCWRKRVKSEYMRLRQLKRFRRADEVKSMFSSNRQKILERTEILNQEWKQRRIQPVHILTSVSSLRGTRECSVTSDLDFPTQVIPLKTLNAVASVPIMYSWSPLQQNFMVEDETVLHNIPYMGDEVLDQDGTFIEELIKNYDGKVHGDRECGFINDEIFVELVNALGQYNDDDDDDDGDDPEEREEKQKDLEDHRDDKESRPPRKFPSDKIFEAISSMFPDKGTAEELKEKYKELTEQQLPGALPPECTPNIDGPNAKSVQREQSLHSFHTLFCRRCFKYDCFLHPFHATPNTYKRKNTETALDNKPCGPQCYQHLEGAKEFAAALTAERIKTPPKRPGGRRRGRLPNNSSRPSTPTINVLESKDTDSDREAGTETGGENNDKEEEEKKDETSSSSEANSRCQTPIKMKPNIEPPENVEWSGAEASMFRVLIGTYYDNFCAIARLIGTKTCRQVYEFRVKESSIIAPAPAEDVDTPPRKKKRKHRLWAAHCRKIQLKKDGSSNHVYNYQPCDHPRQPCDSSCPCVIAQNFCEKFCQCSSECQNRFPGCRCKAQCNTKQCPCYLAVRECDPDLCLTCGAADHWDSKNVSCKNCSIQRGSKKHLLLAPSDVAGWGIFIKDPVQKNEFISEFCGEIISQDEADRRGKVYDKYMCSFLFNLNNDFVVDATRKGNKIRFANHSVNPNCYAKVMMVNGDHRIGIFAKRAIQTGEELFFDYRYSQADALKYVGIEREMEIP
# Sequence (O75530 whole entry partner): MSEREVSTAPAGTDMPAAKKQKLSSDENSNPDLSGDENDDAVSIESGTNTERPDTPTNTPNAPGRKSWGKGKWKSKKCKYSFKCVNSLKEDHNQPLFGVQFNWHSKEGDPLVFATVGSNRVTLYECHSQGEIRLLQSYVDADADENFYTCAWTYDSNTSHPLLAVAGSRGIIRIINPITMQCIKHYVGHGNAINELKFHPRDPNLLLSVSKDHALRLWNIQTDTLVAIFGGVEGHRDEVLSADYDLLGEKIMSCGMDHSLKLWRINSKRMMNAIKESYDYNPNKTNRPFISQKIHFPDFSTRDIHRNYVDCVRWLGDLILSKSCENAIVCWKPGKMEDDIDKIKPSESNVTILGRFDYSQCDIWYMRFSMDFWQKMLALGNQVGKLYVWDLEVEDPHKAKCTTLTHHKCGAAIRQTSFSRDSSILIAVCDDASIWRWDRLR
# Sequence (Q15022 whole entry partner): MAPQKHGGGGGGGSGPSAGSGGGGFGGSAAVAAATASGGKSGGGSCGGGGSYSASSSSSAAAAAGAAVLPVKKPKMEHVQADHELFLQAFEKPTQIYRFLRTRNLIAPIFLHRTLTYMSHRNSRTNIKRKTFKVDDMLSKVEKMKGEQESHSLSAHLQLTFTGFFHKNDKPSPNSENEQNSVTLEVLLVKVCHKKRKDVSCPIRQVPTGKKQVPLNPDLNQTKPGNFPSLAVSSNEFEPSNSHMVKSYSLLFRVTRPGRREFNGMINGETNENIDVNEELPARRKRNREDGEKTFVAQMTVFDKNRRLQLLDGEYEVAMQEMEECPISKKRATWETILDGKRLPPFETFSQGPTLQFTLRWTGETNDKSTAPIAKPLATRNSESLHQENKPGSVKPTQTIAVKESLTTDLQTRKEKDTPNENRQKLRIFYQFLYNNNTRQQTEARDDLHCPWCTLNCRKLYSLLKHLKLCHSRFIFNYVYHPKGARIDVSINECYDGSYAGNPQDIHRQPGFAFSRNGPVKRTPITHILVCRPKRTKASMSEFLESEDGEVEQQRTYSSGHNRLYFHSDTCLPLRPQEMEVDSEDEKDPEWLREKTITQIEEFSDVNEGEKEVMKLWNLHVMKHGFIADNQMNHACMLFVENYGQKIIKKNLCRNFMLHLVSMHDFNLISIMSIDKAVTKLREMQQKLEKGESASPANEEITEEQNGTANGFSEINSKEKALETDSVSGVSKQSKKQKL
# Sequence (Q09028 whole entry partner): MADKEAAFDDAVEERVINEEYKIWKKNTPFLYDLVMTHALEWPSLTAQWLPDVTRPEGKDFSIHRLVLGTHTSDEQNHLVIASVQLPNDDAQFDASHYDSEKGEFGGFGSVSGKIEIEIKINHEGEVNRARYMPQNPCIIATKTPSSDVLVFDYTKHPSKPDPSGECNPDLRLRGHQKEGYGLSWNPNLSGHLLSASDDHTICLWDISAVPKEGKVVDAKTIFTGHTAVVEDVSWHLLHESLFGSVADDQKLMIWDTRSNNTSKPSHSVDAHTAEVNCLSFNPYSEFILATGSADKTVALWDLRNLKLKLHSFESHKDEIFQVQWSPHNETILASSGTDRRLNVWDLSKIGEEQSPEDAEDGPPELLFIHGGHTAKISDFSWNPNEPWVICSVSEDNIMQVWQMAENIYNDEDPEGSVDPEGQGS
# assay.summary: PRC2 enzyme assay on peptide substrate, EZH2 Y641F mutant (H3K27me2 peptide, 3H-SAM Flashplate)
# condition.description: Y641F mutant PRC2 4 nM
attribute.measured: IC50 (µM)

Please report the recorded IC50 for CCN(c1cc(Cl)cc(C(=O)NCc2c(OC)n(C)[nH]c2=O)c1C)[C@H]1CC[C@H](N(C)C)CC1 .
0.001

1. CCN(c1cc(Cl)cc(C(=O)NCc2c(C)n(C)[nH]c2=O)c1C)[C@H]1CC[C@H](N(C)CCOC)CC1
2. CCn1[nH]c(C)c(CNC(=O)c2cc(Cl)cc(N(CC)[C@H]3CC[C@H](N(C)C)CC3)c2C)c1=O
// compare measured IC50, left 1 , right 2 , return larger # reply format: chosen label
1
(1: 0.418 µM, 2: 0.114 µM)

a. CCN(c1cc(Cl)cc(C(=O)NCc2c(OC)nn(C)c2OC)c1C)[C@H]1CC[C@H](N(C)C)CC1
b. CCN(c1cc(Cl)cc(C(=O)NCc2c(C)n(C)[nH]c2=O)c1C)[C@H]1CC[C@H](N(C)C(C)c2cccnc2)CC1 (some centres unmarked)
c. CCN(c1cc(-c2ccc(CN3CCOCC3)cc2)cc(C(=O)NCc2c(OC)nn(C)c2C)c1C)[C@H]1CC[C@H](N(C)C)CC1
d. CCN(c1cc(Cl)cc(C(=O)NCc2c(C(F)(F)F)nn(C)c2OC)c1C)[C@H]1CC[C@H](N(C)C)CC1
e. CCN(c1cc(Cl)cc(C(=O)NCc2c(OC)nn3cccnc23)c1C)[C@H]1CC[C@H](N(C)C)CC1
Please order the records by their reported IC50, lowest number first. Put the labels in the requested order and write them down.
b, c, e, a, d
(b: 0.149 µM, c: 0.625 µM, e: 2.71 µM, a: 17.7 µM, d: 46.4 µM)

----------
# study.target: EZH2 Y641F mutant (PRC2 enzyme) (Homo sapiens (Human), UniProt Q15910, Y641F)
# assay.summary: PRC2 enzyme assay on peptide substrate, EZH2 Y641F mutant (H3K27me2 peptide, 3H-SAM Flashplate)
# condition.description: Y641F mutant PRC2 4 nM
attribute.measured: IC50 (µM)

Some solved entries appear below for comparison.
Name the reported IC50 value associated with the molecule CCN(c1cc(Cl)cc(C(=O)NCc2c(OC)nn(C)c2C)c1C)[C@H]1CC[C@H](N(C)C(C)c2cccnc2)CC1 (stereo partly drawn)
5.67

What measured IC50 goes with CCn1nc(OC)c(CNC(=O)c2cc(Cl)cc(N(CC)[C@H]3CC[C@H](N(C)Cc4cccc(OC)c4)CC3)c2C)c1C ?
0.193

Reported IC50, molecule CCn1[nH]c(=O)c(CNC(=O)c2cc(Cl)cc(N(CC)[C@H]3CC[C@H](N(C)C)CC3)c2C)c1C : ____
0.03

Quick one: IC50 for CCN(c1cc(Cl)cc(C(=O)NCc2c(=O)[nH]n3cccnc23)c1C)[C@H]1CC[C@H](N(C)C)CC1 ?
0.573

Returns the measured IC50 for the input molecule. Input: CCN(c1cc(Cl)cc(C(=O)NCc2c(OC)nn(CC)c2C)c1C)C1CCN(CCOC)CC1
7.25

Any idea what its IC50 is? The molecule is CCN(c1cc(Cl)cc(C(=O)NCc2c(C)n(C)[nH]c2=O)c1C)C1CCN(CCOC)CC1
4.69

A. CCN(c1cc(Cl)cc(C(=O)NCc2c(OC)nn(C)c2N2CCCCC2)c1C)[C@H]1CC[C@H](N(C)Cc2cccc(OC)c2)CC1
B. CCN(c1cc(Cl)cc(C(=O)NCc2c(OC)nn(C)c2N2CCCC2)c1C)[C@H]1CC[C@H](N(C)C)CC1
Returns the identifier with the smallest measured IC50 among A and B . Answer = label.
A
(A: 18.3 µM, B: 49.4 µM)
